Test system: A549-ACE2 infected with SARS-CoV-2
Experiment: SARS-CoV-2 infection rate relative to DMSO; higher = more infection
Settings: 3 µM; 24 h
Hi there, I'd appreciate the recorded SARS-CoV-2 infection rate for every entry that follows.
Write it as a number; the unit % goes unstated.

Entry COc1cc(-n2cnc3cc(-c4ccc(Cl)cc4)sc3c2=O)ccc1OCCN1CCCC1 : reported SARS-CoV-2 infection rate = ?
73

What do you get for CC(=O)[O-].CC(=O)[O-].N.NC1CCCCC1.[Cl-].[Cl-].[Pt+4] ?
97

Queued: CN(C)c1ccc(-c2nc3c(N4CCN(CC(=O)Nc5nccs5)CC4)c(Cl)cnc3[nH]2)cc1
101

What do you have for CCN(CC)CCO[C@H]1CC[C@@]2(C)C(=CC[C@@H]3[C@@H]2CC[C@]2(C)C(=O)CC[C@@H]32)C1 ?
29

Subsequent entry: COc1ccc2nc3c(c(N)c2c1)CCCC3
81

And then C[C@H](Oc1cc(-c2cnn(C3CCNCC3)c2)cnc1N)c1c(Cl)ccc(F)c1Cl [crizotinib-(S)] , what is it?
30

* * *

Would you mind telling me the reported SARS-CoV-2 infection rate of each entry?
System: A549-ACE2 infected with SARS-CoV-2
Assay: SARS-CoV-2 infection rate relative to DMSO; higher = more infection
Conditions: 30 µM; 24 h
All answers are understood in %, so give the number only.

Record request: SARS-CoV-2 infection rate value, item C[C@H](Oc1cc(-c2cnn(C3CCNCC3)c2)cnc1N)c1c(Cl)ccc(F)c1Cl [crizotinib-(S)]
82

Next up: COc1ccc2nc3c(c(N)c2c1)CCCC3
17

Field entry: CN(C)c1ccc(-c2nc3c(N4CCN(CC(=O)Nc5nccs5)CC4)c(Cl)cnc3[nH]2)cc1
65

Please answer likewise for Cc1cccc(/C=N/Nc2cc(N3CCOCC3)n3nc(-c4ccncc4)cc3n2)c1
65

// same read-out, input: NC(=O)c1noc([C@H](CCCC2CCCCC2)CC(=O)NO)n1
95

* * *

Test system: Vero E6
Assay: cell viability relative to DMSO; higher = less toxic
Conditions: 72 h; 1000 nM
Task for the reader: assign each of the following compounds its reported cell viability.
Record the value in %, omitting the unit from your answer.

Form field: reported cell viability of Nc1nc(F)nc2c1ncn2[C@@H]1O[C@H](COP(=O)(O)O)[C@@H](O)[C@@H]1O [fludarabine-phosphate]
101

Try this compound too: CC1CCN(CC[C@H]2CCCN2S(=O)(=O)c2cccc(O)c2)CC1
93.8

What do you get for COc1cc(N)c(Cl)cc1C(=O)OCCN1CCCCC1 ?
99.3

Similarly, COC(=O)c1cnn(-c2ccc(F)cc2F)c1/C=N/NC(=S)NC(C)(C)C ?
96.1

Okay, and Cc1cc(N)c2ccccc2[n+]1CCCCCCCCCC[n+]1c(C)cc(N)c2ccccc21 ?
102

Could you do the same for O=C(O)COc1ccc(OCCNC[C@H](O)COc2ccccc2)cc1 , please?
104

Param item: CCCC(CCC)C(=O)NCc1ccc2c(cnn2-c2ccccc2OC)c1
91.5

Moving on to O=C(Nc1ccc(S(=O)(=O)Nc2ccccc2Cl)c(Cl)c1)c1ccccn1
101

// same read-out, input: COc1cc(-n2cnc3cc(-c4ccc(Cl)cc4)sc3c2=O)ccc1OCCN1CCCC1
93.4

Entry to check: O=C(NCc1ccc(Oc2ccccc2)cc1)c1nc(-c2cc(Br)c(O)c(Br)c2)no1
98.2

Another compound to look at: O=C(CCc1ccc(O)cc1)c1c(O)cc(O)cc1O[C@@H]1O[C@H](CO)[C@@H](O)[C@H](O)[C@H]1O
96.7

Another compound to check: CCC(C)CCCC(=O)N[C@@H](CCN)C(=O)N[C@H](C(=O)N[C@@H](CCN)C(=O)N[C@H]1CCNC(=O)[C@H]([C@@H](C)O)NC(=O)[C@H](CCN)NC(=O)[C@H](CCN)NC(=O)[C@H](CC(C)C)NC(=O)[C@@H](CC(C)C)NC(=O)[C@H](CCN)NC1=O)[C@@H](C)O (some centres not stated)
98.5

Ok, now CC(C)(C)c1ccc(C(=O)CCCN2CCC(OC(c3ccccc3)c3ccccc3)CC2)cc1
92

Try this compound too: OC[C@H]1O[C@@H](n2cnc3c(N[C@H]4CCC[C@@H]4O)ncnc32)[C@H](O)[C@@H]1O
99

Now consider NC(=O)C(c1ccccc1)(c1ccc(F)cc1)c1ccc(F)cc1 and answer again.
97.3

How about O=C(O)CNC(=O)c1ccccc1 ?
94.7

// same read-out, input: CNCC(=O)O
103

* * *

Test system: U2OS
Assay: cell viability relative to DMSO; higher = less toxic
Details: 72 h; 10 nM
MEASURED_PROPERTY: cell viability (%)
Answer with a number only, understood to be in %.

Bench note: what cell viability did O=C1NC(=O)[C@@H](c2cn3c4c(cccc24)CCC3)[C@@H]1c1c[nH]c2ccccc12 [tivantinib] show?
102

Check COc1ccc(Br)cc1S(=O)(=O)NC(=O)/C=C/c1ccccc1Cc1ccc2ccccc2c1 too.
98.3

Then CC(=O)Nc1c(I)c(C(=O)O)c(I)c(N(C)C(C)=O)c1I [metrizoic-acid] ?
105

Please do the same for O=C(O)Cc1ccc(OCc2ccccc2)c(Cl)c1 [benzofenac] as well.
98.2

Entry to check: NC(=O)N1C(=O)/C(=C(\O)c2cccs2)c2cc(Cl)ccc21 [tenidap]
98.3

Note, next up: N=C(N)NCc1cccc(I)c1 [iobenguane]
99.8

Entry CC(C)Oc1ccc(-c2nc(-c3cccc4c3CC[C@H]4NCCC(=O)O)no2)cc1C#N [RP-001] please
95.1

Also CCCNC(C)(C)COC(=O)c1ccccc1 [meprylcaine] , if possible.
98.2

Please answer likewise for O=C1CC[C@@](c2ccccc2)(C2CCN(Cc3ccc(I)cc3)CC2)C(=O)N1 [iododexetimide]
95.5

Quick one: Cc1nccn1CCC(C(N)=O)(c1ccccc1)c1ccccc1 [imidafenacin]
94

Please do the same for NC(=O)[C@H]1CCS[C@@H]2C[C@]3(CCCN3C(=O)Cc3ccc(NC(=O)COc4ccc(Cl)cc4Cl)cc3)C(=O)N12 [ST-2825] as well.
104

Note, next up: O=C(Nc1cccc(Cl)c1)c1ccccn1
104

What about O=C(O)C[C@H]1CC[C@H](c2ccc(NC(=O)c3nnc(Nc4ccc(F)c(F)c4)o3)cc2)CC1 [AZD3988] ?
98.8

Item: CCOC(=O)NNc1nncc2ccccc12 [todralazine]
100

Please give the result for O=c1cc(N2CCOCC2)oc2c1ccc1ccccc12 [NU-7026] too.
101

Also O=c1[nH]c(=O)n([C@H]2C[C@H](O)[C@@H](CO)O2)cc1Br [broxuridine] , if possible.
98

Another molecule: CCN[C@H]1C[C@H](C)S(=O)(=O)c2sc(S(N)(=O)=O)cc21 [dorzolamide]
100

// repeat for O=C(Nc1cccnn1)N1CCC(=Cc2cccc(Oc3ccc(C(F)(F)F)cn3)c2)CC1 and report
96.2

For CC(C)(Oc1ccc(C(=O)c2ccc(Cl)cc2)cc1)C(=O)O [fenofibric-acid] then?
100

Queued: CCCC(CCC)C(=O)O[C@H]1C[C@H]2CC[C@@H](C1)[N+]2(C)C [anisotropine]
99

Param item: CCS(=O)(=O)N1CCN(c2ccc(Nc3ncc(C(N)=O)c(NC4CC4)n3)cc2)CC1
103

Can you handle CCOC(=O)Nc1ccc(NCc2c(C)cc(C)cc2C)cc1N next?
103

Same for N[C@@H](CC(=O)N1CCn2c(nnc2C(F)(F)F)C1)Cc1cc(F)c(F)cc1F [sitagliptin]
94.6

Do the same for O=C(CCc1ccc(O)cc1)c1c(O)cc(O)cc1O[C@@H]1O[C@H](CO)[C@@H](O)[C@H](O)[C@H]1O [phlorizin] please
98.5

And for NC(=O)N1c2ccccc2CC(=O)c2ccccc21 [oxcarbazepine] ?
100

Try this molecule next: CC1=C(C(=O)OC(C)C)C(c2cccc([N+](=O)[O-])c2)C(C(=O)OC2CN(C(c3ccccc3)c3ccccc3)C2)=C(N)N1 (stereo unspecified) [azelnidipine]
97.5

Could you do the same for Cc1cccc(/C=N/Nc2cc(N3CCOCC3)n3nc(-c4ccncc4)cc3n2)c1 [APY0201] , please?
97.7

Field entry: O=C(/C=C/c1ccc2ccccc2n1)c1ccncc1 [PFK-015]
94.8

Further, for CNC(=O)Oc1ccccc1OC(C)C [propoxur] ?
97.7

Subsequent entry: COC(=O)[C@H](c1ccccc1Cl)N1CCc2sccc2C1 [clopidogrel]
99.3

Query CCOC(=O)O[C@]1(C(=O)OCCl)CC[C@H]2[C@@H]3CCC4=CC(=O)C=C[C@]4(C)[C@H]3[C@@H](O)C[C@@]21C [loteprednol] next
102

# iterate: C/C(=N\NC(=O)C(NC(=O)c1ccccc1)c1n[nH]c(=O)c2ccccc12)c1cccc(Br)c1 (stereo unspecified)
97

Would you mind doing COc1cccc2c1C(=O)c1c(O)c3c(c(O)c1C2=O)C[C@@](O)(/C(CO)=N/NC(=O)CCCCCN1C(=O)C=CC1=O)C[C@@H]3O[C@H]1C[C@H](N)[C@H](O)[C@H](C)O1 [aldoxorubicin] as well?
98.4

Ok, now N[C@@H](C[C@@H](F)C(=O)O)C(=O)O [BAY-85-8050]
99.6

Now consider O=C(O)[C@H]1CN(CCCP(=O)(O)O)CCN1 [CPP] and answer again.
106

Then CC(=O)N1CCN(C)CC1 [1-acetyl-4-methylpiperazine] ?
99.1
